- System: Rattus norvegicus
- experiment: In vivo hypolipidemic activity, expressed as percent decrease in Triglyceride in rat, at dosage of 100 mg for 7 days.
- Assay type: functional

| compound | system-under-test | Decrease, % |
| --- | --- | --- |
| CCCCOc1ccc(/C=C/C(=O)OCCS(=O)(=O)[O-])cc1.[Na+] | Rattus norvegicus | 9 |
| CCCCOc1ccc(/C=C/C(=O)OCCCl)cc1 | Rattus norvegicus | 26 |
| CCCCCCCCCCCCCCOc1ccc(/C=C(\C)C(=O)OCC(O)CO)cc1 (stereo in doubt; 97) | Rattus norvegicus | 52 |
| C=CCOc1ccc(/C=C/C(=O)OCCCl)cc1 | Rattus norvegicus | 26 |
| CCCCCCCCCCCCCCCCOc1ccc(/C=C/C(=O)OCCO)cc1 | Rattus norvegicus | 57 |
| C=C(C)C(=O)OCCOC(=O)/C=C/c1ccc(OCc2ccccc2)cc1 | Rattus norvegicus | 33 |
| C=C(C)C(=O)OCCCOC(=O)/C=C/c1ccc(OCCCCCCCCCCCCCCCC)cc1 | Rattus norvegicus | 0 |
| CCCCOc1ccc(/C=C/C(=O)OCCBr)cc1 | Rattus norvegicus | 26 |
| C=C(C)C(=O)OCCOC(=O)/C(C)=C/c1ccc(OCCCCCCCCCCCCCCCC)cc1 | Rattus norvegicus | 62 |
| C=C(C)C(=O)OCCOC(=O)/C=C/c1ccc(OCCCCCCCC)cc1 | Rattus norvegicus | -11 |
| CCCCOc1ccc(/C=C/C(=O)OCCN2CCCCC2)cc1.Cl | Rattus norvegicus | 2 |
